# measurement-target: human recombinant MAO-B (Homo sapiens, UniProt P27338)
# Sequence (P27338 whole entry): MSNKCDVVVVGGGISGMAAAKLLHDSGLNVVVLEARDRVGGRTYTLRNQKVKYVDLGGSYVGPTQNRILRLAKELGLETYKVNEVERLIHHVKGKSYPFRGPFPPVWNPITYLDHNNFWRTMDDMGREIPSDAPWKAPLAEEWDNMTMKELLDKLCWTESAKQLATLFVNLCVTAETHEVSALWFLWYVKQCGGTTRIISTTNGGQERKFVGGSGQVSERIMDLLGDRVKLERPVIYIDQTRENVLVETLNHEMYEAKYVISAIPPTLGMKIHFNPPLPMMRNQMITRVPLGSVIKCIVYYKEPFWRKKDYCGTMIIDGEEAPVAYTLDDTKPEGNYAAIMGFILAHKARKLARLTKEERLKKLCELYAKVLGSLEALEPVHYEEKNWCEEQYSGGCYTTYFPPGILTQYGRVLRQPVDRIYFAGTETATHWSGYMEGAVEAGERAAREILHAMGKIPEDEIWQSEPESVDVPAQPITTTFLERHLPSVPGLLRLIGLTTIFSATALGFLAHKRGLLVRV
# protocol-summary: MAO inhibition assay (kynuramine, fluorimetric)
# Assay type: biochemical
# assay-conditions: 10^-4 M
Listed next: entries and their corresponding MAO-B Inhibition (%).
Supply the numeric figure in %, leaving out any unit text.

• CCOc1ccc(-c2nc3ccccc3n2CCN2CCOCC2)cc1 = 32.44
• CN(C)c1ccc(-c2nc3ccccc3n2CCN2CCOCC2)cc1 = 14.43
• FC(F)(F)c1ccc(-c2nc3ccccc3n2CCN2CCOCC2)cc1 = 38.09
• c1ccc(COc2ccc(-c3nc4ccccc4n3CCN3CCOCC3)cc2)cc1 = 31.14
• Brc1ccc(-c2nc3ccccc3n2CCN2CCOCC2)cc1 = 30.87
• CCN(CC)c1ccc(-c2nc3ccccc3n2CCN2CCOCC2)cc1 = 36.16
• Cc1ccc(-c2nc3ccccc3n2CCN2CCOCC2)cc1 = 16.63
• COc1ccc(-c2nc3ccccc3n2CCN2CCOCC2)cc1 = 31.75

Entry `FC(F)(F)Oc1ccc(-c2nc3ccccc3n2CCN2CCOCC2)cc1` : reported MAO-B Inhibition (%) = ?
12.43

The measured values listed here are drawn from paper PMC6152416.
